Recorded values, source the supplement of paper PMC3334620.

Target System: Yap3 (UniProt P38749)
Sequence: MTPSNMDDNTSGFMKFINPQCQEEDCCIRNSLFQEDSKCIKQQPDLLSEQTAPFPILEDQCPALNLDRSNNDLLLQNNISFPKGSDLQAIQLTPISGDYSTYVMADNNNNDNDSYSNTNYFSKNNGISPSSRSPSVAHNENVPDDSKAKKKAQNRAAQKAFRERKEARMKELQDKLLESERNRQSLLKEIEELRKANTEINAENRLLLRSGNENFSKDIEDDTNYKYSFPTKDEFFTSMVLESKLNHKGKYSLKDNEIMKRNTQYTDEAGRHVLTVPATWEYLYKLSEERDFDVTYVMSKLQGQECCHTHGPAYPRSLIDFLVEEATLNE
Experimental Details: PBM E-score (8-mer binding enrichment) (E-score (-0.5 to 0.5)); higher = stronger / more preferred TF binding
Experimental Setup: protein concentration: 100 nM; construct: GST-full length
Whole data set: some 33,000 sequences, median “E-score (-0.5 to 0.5)” near -0.0034, cut for the highest 2% near 0.25. This is one part of a sample in which the highest values are shown more often than they occur.
Parameter Measured: PBM E-score
Returns: the value as a bare number; no unit string appended.

Examples from the recorded data:
INSERT INTO assay_data (seq_text, observed_value) VALUES
  ('GTAAAGTA', 0.251),
  ('ATAATACC', 0.226),
  ('TATTTCCA', 0.00077),
  ('ATAGGGTG', -0.123),
  ('CGTTCTGA', -0.106),
  ('CGGTTCGA', 0.0689);

The sequence identified as `AATGCAAG` registered its PBM E-score at 0.0231

The sequence identified as `AATGCGCG` registered its PBM E-score at 0.178

The sequence identified as `GTGAAATA` registered its PBM E-score at 0.0605

The sequence identified as `ATGAAATA` registered its PBM E-score at 0.288

The sequence identified as `AATTTCCA` registered its PBM E-score at 0.267

The sequence identified as `AACTAGAT` registered its PBM E-score at 0.0716

The sequence identified as `CTACTACA` registered its PBM E-score at 0.225

The sequence identified as `GGCGACAA` registered its PBM E-score at -0.181

The sequence identified as `CAATTCCA` registered its PBM E-score at -0.102

The sequence identified as `AAATTCGT` registered its PBM E-score at 0.312

The sequence identified as `ATGAAAAA` registered its PBM E-score at 0.278

The sequence identified as `AATGCATG` registered its PBM E-score at 0.188

The sequence identified as `CTATACAA` registered its PBM E-score at 0.189

----------
Target System: Yap3 (UniProt P38749)
Sequence: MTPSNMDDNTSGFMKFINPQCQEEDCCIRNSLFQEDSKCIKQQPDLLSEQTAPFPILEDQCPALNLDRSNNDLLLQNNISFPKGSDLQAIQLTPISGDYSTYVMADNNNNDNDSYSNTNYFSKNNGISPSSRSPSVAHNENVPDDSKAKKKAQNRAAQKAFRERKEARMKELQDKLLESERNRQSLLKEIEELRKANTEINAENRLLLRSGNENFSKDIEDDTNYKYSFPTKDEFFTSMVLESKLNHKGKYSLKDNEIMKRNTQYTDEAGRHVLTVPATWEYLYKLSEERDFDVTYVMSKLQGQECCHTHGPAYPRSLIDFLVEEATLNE
Experimental Details: PBM E-score (8-mer binding enrichment) (E-score (-0.5 to 0.5)); higher = stronger / more preferred TF binding
Experimental Setup: protein concentration: 100 nM; construct: GST-full length
Whole data set: some 33,000 sequences, median “E-score (-0.5 to 0.5)” near -0.0034, cut for the highest 2% near 0.25. The full list was thinned out, with the highest values kept by preference.
Threshold rule: PBM E-score greater than or equal to 0.1 is condition met; below that, condition not met.

Worked set:
INSERT INTO assay_data (seq_text, target_system, assigned_class) VALUES
  ('ACGTAAAA', 'Yap3 (UniProt P38749)', 'condition met'),
  ('ACATCCAT', 'Yap3 (UniProt P38749)', 'condition not met'),
  ('CCACCATC', 'Yap3 (UniProt P38749)', 'condition not met'),
  ('ACCTAGGG', 'Yap3 (UniProt P38749)', 'condition not met'),
  ('CTAATTCA', 'Yap3 (UniProt P38749)', 'condition met'),
  ('TACTAACA', 'Yap3 (UniProt P38749)', 'condition met'),
  ('ATAATTCA', 'Yap3 (UniProt P38749)', 'condition met'),
  ('CGACAGGA', 'Yap3 (UniProt P38749)', 'condition not met');

Ask: Determine whether this sequence has PBM E-score no lower than 0.1: `ACAGACAC`
Result: condition not met

Ask: Determine whether this sequence has PBM E-score no lower than 0.1: `AGGTAATA`
Result: condition met

----------
Target System: Yap3 (UniProt P38749)
Sequence: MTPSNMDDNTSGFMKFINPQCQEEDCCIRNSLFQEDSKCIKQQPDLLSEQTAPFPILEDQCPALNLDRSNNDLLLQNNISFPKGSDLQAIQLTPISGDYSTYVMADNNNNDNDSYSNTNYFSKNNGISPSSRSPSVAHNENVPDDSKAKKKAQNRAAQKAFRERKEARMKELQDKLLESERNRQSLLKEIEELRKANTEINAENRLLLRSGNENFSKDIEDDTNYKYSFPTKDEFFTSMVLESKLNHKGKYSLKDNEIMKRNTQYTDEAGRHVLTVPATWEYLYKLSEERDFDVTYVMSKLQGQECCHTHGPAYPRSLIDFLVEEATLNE
Experimental Details: PBM E-score (8-mer binding enrichment) (E-score (-0.5 to 0.5)); higher = stronger / more preferred TF binding
Experimental Setup: protein concentration: 100 nM; construct: GST-full length
Whole data set: some 33,000 sequences, median “E-score (-0.5 to 0.5)” near -0.0034, cut for the highest 2% near 0.25. Many of the other results were omitted from the sample, so the highest values are more common in it than they were.
Parameter Measured: PBM E-score
Returns: the value as a bare number; no unit string appended.

The sequence identified as `AAGCGCTA` registered its PBM E-score at 0.0946

The sequence identified as `AAGTTATT` registered its PBM E-score at 0.174

The sequence identified as `GCCAATCA` registered its PBM E-score at -0.169

----------
Target System: Yap3 (UniProt P38749)
Sequence: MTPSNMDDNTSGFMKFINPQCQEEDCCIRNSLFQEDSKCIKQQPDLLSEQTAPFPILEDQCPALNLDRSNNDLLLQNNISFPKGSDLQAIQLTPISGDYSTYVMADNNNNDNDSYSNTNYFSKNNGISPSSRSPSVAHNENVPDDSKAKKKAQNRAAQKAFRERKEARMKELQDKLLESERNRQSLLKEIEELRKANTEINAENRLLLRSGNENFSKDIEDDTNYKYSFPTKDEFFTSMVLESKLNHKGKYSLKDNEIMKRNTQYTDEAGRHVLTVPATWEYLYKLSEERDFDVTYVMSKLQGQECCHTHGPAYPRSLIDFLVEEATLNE
Experimental Details: PBM E-score (8-mer binding enrichment) (E-score (-0.5 to 0.5)); higher = stronger / more preferred TF binding
Experimental Setup: protein concentration: 100 nM; construct: GST-full length
Over roughly 33,000 sequences, “E-score (-0.5 to 0.5)” has its median near -0.0034; the highest 2% begin near 0.25. The sample holds the highest values, similar sequences and a random draw of the others, so the mix is not that of the screen.
Parameter Measured: PBM E-score
Returns: the value as a bare number; no unit string appended.

INSERT INTO assay_data (seq_text, observed_value) VALUES
  ('ATTGGTTG', 0.118),
  ('CCGGAAAA', 0.106),
  ('CGAGGCGC', -0.0513),
  ('GTTTATTA', 0.268);

// returns PBM E-score for `AAAAAAAC` with Yap3 (UniProt P38749); value = 0.151

// returns PBM E-score for `ACTCGCAC` with Yap3 (UniProt P38749); value = -0.0984

// returns PBM E-score for `AACAATAC` with Yap3 (UniProt P38749); value = 0.0469

// returns PBM E-score for `ACAAGAAA` with Yap3 (UniProt P38749); value = 0.268

// returns PBM E-score for `CCAAGAAA` with Yap3 (UniProt P38749); value = -0.00981

// returns PBM E-score for `ATCATCAT` with Yap3 (UniProt P38749); value = 0.139

// returns PBM E-score for `CATGCTTC` with Yap3 (UniProt P38749); value = -0.024

// returns PBM E-score for `AAAAAAAA` with Yap3 (UniProt P38749); value = 0.244

// returns PBM E-score for `GGTTATTA` with Yap3 (UniProt P38749); value = 0.158
